chromatographic logP reference
assay: LogP measurement by HPLC on reversed phase columns (EEC directive 79/831 Annex V.A8); format: physicochemical; conditions: reversed phase HPLC column, method [a]: LC-UV, acidic range, 0.1% formic acid in water and acetonitrile as eluent
Answer with a bare number; do not write a unit.

Lookup: Please report the recorded chromatographic logP for CCN(C)C=Nc1cc(C)c(Oc2ccnc(Sc3cccc(F)c3)n2)cc1C .
Found: 1.66

Lookup: Tell me the measured chromatographic logP of CCN(C)C=Nc1cc(C)c(Oc2ccnc(C(F)(F)F)n2)cc1C , please.
Found: 1.24

----------
Entries and their measured chromatographic logP follow.
assay: LogP measurement by HPLC on reversed phase columns (EEC directive 79/831 Annex V.A8); assay type: physicochemical; settings: reversed phase HPLC column, method [a]: LC-UV, acidic range, 0.1% formic acid in water and acetonitrile as eluent
Please respond with just the number, no unit label.

{"compound": "CCN(C)C=Nc1cc(C)c(Oc2cc(C)nc(SC(C)C)n2)cc1C", "chromatographic logP": 1.69}
{"compound": "CCCSc1nccc(Oc2cc(C)c(N=CN(C)CC)cc2C#N)n1", "chromatographic logP": 1.44}

Lookup: Given CCN(C)C=Nc1cc(Br)c(Oc2cc(SC(C)(C)C)nc(C)n2)cc1C , state its recorded chromatographic logP.
Found: 2.11

Lookup: Which chromatographic logP is listed for CCCSc1nc(C)cc(Oc2cc(C)c(N=CN(C)CC)cc2C)n1 ?
Found: 1.69

Lookup: Give the measured chromatographic logP of CCSc1nccc(Oc2cc(C)c(N=CN(C)CC)cc2Br)n1 .
Found: 1.46

Lookup: Form field: reported chromatographic logP of CCN(C)C=Nc1cc(C)c(Oc2ccnc(SC3CCCCC3)n2)cc1C
Found: 1.86

Lookup: Given CCC(C)Sc1cc(Oc2cc(C)c(N=CN(C)CC)cc2C)nc(C)n1 (centres unmarked) , state its recorded chromatographic logP.
Found: 2.02

Lookup: Suppose we examine the compound CCN(C)C=Nc1cc(C)c(Oc2ccnc(CCC(C)(C)C)n2)cc1C ; what chromatographic logP value has been reported?
Found: 1.63

Lookup: Which chromatographic logP reading was recorded for the compound CCN(C)C=Nc1cc(C)c(Oc2cc(C)nc(SC)n2)cc1C ?
Found: 1.34

Lookup: Item under review: CCN(C)C=Nc1cc(C)c(Oc2ccnc(SC3CCCC3)n2)cc1C . Reported chromatographic logP?
Found: 1.75

----------
experiment: LogP measurement by HPLC on reversed phase columns (EEC directive 79/831 Annex V.A8); assay type: physicochemical; settings: method [a]: LC-UV, acidic range, 0.1% formic acid in water and acetonitrile as eluent
measuredParameter: chromatographic logP
# print the numeric value only

Example results:
{"compound": "CCSc1nccc(Oc2cc(C)c(N=CN(C)CC)cc2C)n1 [I.027]", "chromatographic logP": 1.27}
{"compound": "CCN(C)C=Nc1cc(C#N)c(Oc2ccnc(C(C)(C)C)n2)cc1C [I.044]", "chromatographic logP": 1.41}
{"compound": "CCCSc1nccc(Oc2cc(C)c(N=CN(C)CC)cc2C)n1 [I.029]", "chromatographic logP": 1.46}
{"compound": "CCN(C)C=Nc1cc(C)c(Oc2ccnc(Sc3ccccc3)n2)cc1C [I.039]", "chromatographic logP": 1.52}
{"compound": "CCN(C)C=Nc1cc(C)c(Oc2ccnc(SCC[Si](C)(C)C)n2)cc1C [I.043]", "chromatographic logP": 2.17}
{"compound": "CCN(C)C=Nc1cc(C)c(Oc2ccnc(OC3CCCC3)n2)cc1C [I.041]", "chromatographic logP": 1.6}
{"compound": "CCN(C)C=Nc1cc(C)c(Oc2ccnc(SCc3ccccc3)n2)cc1C [I.042]", "chromatographic logP": 1.63}

Could you now look at the following compound, please?
Lookup: Item CCN(C)C=Nc1cc(Br)c(Oc2ccnc(C(C)(C)C)n2)cc1C [I.038] has what recorded chromatographic logP?
Found: 1.58

----------
assay: LogP measurement by HPLC on reversed phase columns (EEC directive 79/831 Annex V.A8); type: physicochemical; conditions: reversed phase HPLC column, method [a]: LC-UV, acidic range, 0.1% formic acid in water and acetonitrile as eluent
measuredParameter: chromatographic logP

// below: answered molecules
{"smilesInput": "CCN(C)C=Nc1cc(C)c(Oc2ccnc(Sc3ccncc3)n2)cc1C", "measuredParameter": "chromatographic logP", "result": 1.13}
{"smilesInput": "CCN(C)C=Nc1cc(C)c(Oc2ccnc(/C=C/C(C)(C)C)n2)cc1C", "measuredParameter": "chromatographic logP", "result": 1.66}
{"smilesInput": "CCN(C)C=Nc1cc(Br)c(Oc2ccnc(SCC(C)C)n2)cc1C", "measuredParameter": "chromatographic logP", "result": 1.81}

Please examine the following record next.
Lookup: Field request: chromatographic logP | item: CCN(C)C=Nc1cc(C(F)F)c(Oc2ccnc(SCC(C)C)n2)cc1C
Found: 1.69

----------
experiment: LogP measurement by HPLC on reversed phase columns (EEC directive 79/831 Annex V.A8); assay type: physicochemical; conditions: reversed phase HPLC column, method [a]: LC-UV, acidic range, 0.1% formic acid in water and acetonitrile as eluent
Readings of chromatographic logP for the listed compounds
Keep it simple and answer with nothing but the number.

The examples below pair each entry with its known result.
{"compound": "CCN(C)C=Nc1cc(Br)c(Oc2ccnc(SCC(F)(F)F)n2)cc1C [I.005]", "chromatographic logP": 1.58}
{"compound": "CCN(C)C=Nc1cc(C)c(Oc2ccnc(Sc3ccc(F)cc3)n2)cc1C [I.010]", "chromatographic logP": 1.6}

Below: the item to evaluate.
Lookup: Find the recorded chromatographic logP belonging to CCN(C)C=Nc1cc(C)c(Oc2ccnc(SCCC(C)C)n2)cc1C [I.002] and report it.
Found: 1.9

----------
system: Puccinia recondita; test: in vivo preventive test on Puccinia recondita (brown rust on wheat); conditions: 500 ppm
measuredParameter: efficacy

Look over these answered cases.
{"smilesInput": "CCSc1nccc(Oc2cc(C)c(N=CN(C)CC)cc2C)n1", "efficacy": "at least 70%"}
{"smilesInput": "CCN(C)C=Nc1cc(C#N)c(Oc2ccnc(C(C)(C)C)n2)cc1C", "efficacy": "at least 70%"}
{"smilesInput": "CCN(C)C=Nc1cc(C)c(Oc2ccnc(SCc3ccccc3)n2)cc1C", "efficacy": "at least 70%"}
{"smilesInput": "CCN(C)C=Nc1cc(Br)c(Oc2ccnc(C(C)(C)C)n2)cc1C", "efficacy": "at least 70%"}
{"smilesInput": "CCCSc1nccc(Oc2cc(C)c(N=CN(C)CC)cc2C)n1", "efficacy": "at least 70%"}

Lookup: Recorded efficacy for CCN(C)C=Nc1cc(C)c(Oc2ccnc(OC3CCCC3)n2)cc1C , please?
Found: at least 70%

Lookup: # efficacy lookup, item CCN(C)C=Nc1cc(C)c(Oc2ccnc(Sc3ccccc3)n2)cc1C
Found: at least 70%

----------
test: LogP measurement by HPLC on reversed phase columns (EEC directive 79/831 Annex V.A8); assay type: physicochemical; conditions: reversed phase HPLC column, method [b]: LC-UV, neutral range, 0.001 molar ammonium acetate solution in water and acetonitrile as eluent
In this section, each of the compounds is paired with its reported chromatographic logP.
Simply state the number, no unit and no words.

Sample answers from the record:
{"compound": "CCN(C)C=Nc1cc(C)c(Oc2ccnc(SC(C)C)n2)cc1C", "number": 4.54}
{"compound": "CCN(C)C=Nc1cc(C)c(Oc2ccnc(C(C)(C)C)n2)cc1C", "number": 4.56}
{"compound": "CCN(C)C=Nc1cc(C)c(Oc2ccnc(SCCC(C)C)n2)cc1C", "number": 5.66}
{"compound": "CCCSc1nccc(Oc2cc(C)c(N=CN(C)CC)cc2C#N)n1", "number": 4.16}
{"compound": "CCN(C)C=Nc1cc(Br)c(Oc2ccnc(SC(C)(C)C)n2)cc1C", "number": 4.95}
{"compound": "CCN(C)C=Nc1cc(C#N)c(Oc2ccnc(SCC(C)C)n2)cc1C", "number": 4.5}
{"compound": "CCN(C)C=Nc1cc(C)c(Oc2ccnc(CCC(C)(C)C)n2)cc1C", "number": 4.89}
{"compound": "CCN(C)C=Nc1cc(C)c(Oc2ccnc(SCC(F)(F)F)n2)cc1C", "number": 4.37}
{"compound": "CCC(C)Sc1cc(Oc2cc(C)c(N=CN(C)CC)cc2C)nc(C)n1 (stereo not shown)", "number": 5.98}

Let us move to another entry and its chromatographic logP.
Lookup: Quick one: chromatographic logP of CCN(C)C=Nc1cc(C)c(Oc2ccnc(SCC(C)C)n2)cc1Cl ?
Found: 4.77

----------
Entries and their measured chromatographic logP follow.
assay: LogP measurement by HPLC on reversed phase columns (EEC directive 79/831 Annex V.A8); assay type: physicochemical; conditions: reversed phase HPLC column, method [b]: LC-UV, neutral range, 0.001 molar ammonium acetate solution in water and acetonitrile as eluent
Answer with the value's number alone.

Use the examples below as a reference point.
{"smilesInput": "CCCSc1nccc(Oc2cc(C)c(N=CN(C)CC)cc2Br)n1", "chromatographic logP": 4.86}
{"smilesInput": "CCN(C)C=Nc1cc(C)c(Oc2ccnc(SC(C)C)n2)cc1Cl", "chromatographic logP": 4.35}
{"smilesInput": "CCSc1nccc(Oc2cc(C)c(N=CN(C)CC)cc2Br)n1", "chromatographic logP": 4.44}
{"smilesInput": "CCN(C)C=Nc1cc(C)c(Oc2ccnc(SCC(F)(F)F)n2)cc1Cl", "chromatographic logP": 4.19}
{"smilesInput": "CCN(C)C=Nc1cc(C)c(Oc2ccnc(C(F)(F)F)n2)cc1C", "chromatographic logP": 3.82}
{"smilesInput": "CCN(C)C=Nc1cc(C)c(Oc2ccnc(SCC(C)C)n2)cc1C", "chromatographic logP": 5.06}

Lookup: Quick one: chromatographic logP of CCN(C)C=Nc1cc(C)c(Oc2cc(C)nc(SC)n2)cc1C ?
Found: 4.16

Lookup: Requested read-out: chromatographic logP. Entry: CCN(C)C=Nc1cc(Br)c(Oc2ccnc(Sc3ccccc3)n2)cc1C
Found: 4.8

Lookup: Report chromatographic logP for CCN(C)C=Nc1cc(C)c(Oc2ccnc(SC(C)(C)C)n2)cc1Cl please.
Found: 4.5

Lookup: Dear colleague, I am looking for the recorded chromatographic logP of the following compound: CCN(C)C=Nc1cc(Br)c(Oc2ccnc(SCC(F)(F)F)n2)cc1C
Found: 4.66

Lookup: Can you share its chromatographic logP? I mean this compound: CCN(C)C=Nc1cc(Br)c(Oc2ccnc(SCC(C)C)n2)cc1C
Found: 5.25

Lookup: Value lookup for chromatographic logP; key = CCN(C)C=Nc1cc(C)c(Oc2ccnc(/C=C/C(C)(C)C)n2)cc1C
Found: 4.94
